Where do these numbers come from? They come from ChEMBL document CHEMBL4609980.

Target: Cysteine protease falcipain-3 (Plasmodium falciparum) (UniProt Q9NAW4)
Sequence (whole entry): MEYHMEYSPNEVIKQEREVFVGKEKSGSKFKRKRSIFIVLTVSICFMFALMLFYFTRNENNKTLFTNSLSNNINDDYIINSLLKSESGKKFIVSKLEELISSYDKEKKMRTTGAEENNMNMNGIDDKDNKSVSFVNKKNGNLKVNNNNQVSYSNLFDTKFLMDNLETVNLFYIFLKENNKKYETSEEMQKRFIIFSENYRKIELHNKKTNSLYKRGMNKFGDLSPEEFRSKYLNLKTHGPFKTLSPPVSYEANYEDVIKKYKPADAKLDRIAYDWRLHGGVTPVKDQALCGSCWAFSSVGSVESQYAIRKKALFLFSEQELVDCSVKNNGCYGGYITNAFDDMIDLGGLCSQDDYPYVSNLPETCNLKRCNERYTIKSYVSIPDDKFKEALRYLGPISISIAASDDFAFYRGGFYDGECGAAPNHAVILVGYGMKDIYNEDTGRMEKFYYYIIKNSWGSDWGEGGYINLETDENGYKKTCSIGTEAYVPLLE
Assay: Inhibition of recombinant Plasmodium falciparum falcipain-3 expressed in bacterial expression system using ZFR-AMC as substrate at 100 uM measured for 30 mins by fluorimetric assay relative to control
The following compounds are listed with their measured inhibition values.

{"COMPOUND": "O=C(CNC(=O)N1CCN(Cc2ccccc2)CC1)NC1=CC2=CC=N[C@@H]2C=C1", "inhibition [%]": 15}
{"COMPOUND": "O=C(CN1CCN(C2=NCCC=N2)CC1)Nc1cccc2ccccc12", "inhibition [%]": 21}
{"COMPOUND": "Cc1ccc(NCC(=O)NC2CC2)cc1S(=O)(=O)C1CCCCC1", "inhibition [%]": 6}
{"COMPOUND": "O=C(CCC1=CC(=O)C2C(=N1)SC1=C2CCCC1)NC1CCCCNC1=O (stereo not given)", "inhibition [%]": 39}
{"COMPOUND": "O=C(NCCCn1nc2n(c1=O)CCCC2)c1cc2c(cc1O)CCCC2", "inhibition [%]": 15}
{"COMPOUND": "CN1CCCc2cc(CCNC(=O)C(=O)Nc3ccc4c(c3)OCO4)ccc21", "inhibition [%]": 61}
{"COMPOUND": "Cc1ccc(NC(=O)CN2CCC[C@H](c3nc4ccccc4o3)C2)cc1C", "inhibition [%]": 9}
{"COMPOUND": "O=C(CN1CCC(c2ccccc2)C1)NC1CCC2(CC1)OCCO2 (stereo not given)", "inhibition [%]": 69}
{"COMPOUND": "O=C1C[C@H](C(=O)Nc2ccccc2)NC(N2CCN(Cc3ccccc3)CC2)=N1", "inhibition [%]": 17}
{"COMPOUND": "O=C(Nc1ccc([C@@H]2C=c3ccccc3=N2)cc1)[C@@H]1CCCN1C1CCOCC1", "inhibition [%]": 50}
